# system.tested: CaCYP51 D278N+G464S (Candida albicans, UniProt P10613, D278N/G464S)
# Construct: made in house; host or cells: E. coli DH5α (pCWori+)
# experiment.notes: CYP51 reconstitution assay
# Format: biochemical
# experimental.context: 0.25 h, 4 μM triazole, % of activity without triazole, read-out: Residual CYP51 activity (%) ± SD
property.label: remaining activity at 4 µM (%)
Supply the numeric figure in %, leaving out any unit text.

remaining activity at 4 µM recorded for this compound, "CC[C@@H]([C@H](C)O)n1ncn(-c2ccc(N3CCN(c4ccc(OC[C@@H]5CO[C@@](Cn6cncn6)(c6ccc(F)cc6F)C5)cc4)CC3)cc2)c1=O" , is 15

remaining activity at 4 µM in this record for "OC(Cn1cncn1)(Cn1cncn1)c1ccc(F)cc1F" : 18.3

GET /value?item= CCC(C)n1ncn(-c2ccc(N3CCN(c4ccc(OCC5COC(Cn6cncn6)(c6ccc(Cl)cc6Cl)O5)cc4)CC3)cc2)c1=O (stereo not shown) &field=remaining activity at 4 µM returns 3.19

So, "C[C@@H](c1ncncc1F)[C@](O)(Cn1cncn1)c1ccc(F)cc1F" ? Its remaining activity at 4 µM was 4.79

====

# Test system: fluconazole-susceptible parent strain SC5314
# experiment.notes: CLSI broth microdilution MIC
# Type: cell-based
# experimental.context: Candida albicans; parent strain SC5314, no substitution; RPMI 1640, 24 h, 35°C, 50% reduction in growth
property.label: MIC (µg/mL)
Write the number in µg/mL without appending the unit.

What the record says about "OC(Cn1cncn1)(Cn1cncn1)c1ccc(F)cc1F" : MIC is 1

MIC measured on CCC(C)n1ncn(-c2ccc(N3CCN(c4ccc(OCC5COC(Cn6cncn6)(c6ccc(Cl)cc6Cl)O5)cc4)CC3)cc2)c1=O (stereo not shown) = 0.06

====

# System: C. albicans SC5314 strain with CaCYP51 substitution Y132F+F145L
# experiment.notes: CLSI broth microdilution MIC
# Format: cell-based
# experimental.context: Candida albicans, RPMI 1640, 24 h, 35°C, 50% reduction in growth
Provide the reported MIC of each item.

CCC(C)n1ncn(-c2ccc(N3CCN(c4ccc(OCC5COC(Cn6cncn6)(c6ccc(Cl)cc6Cl)O5)cc4)CC3)cc2)c1=O (stereo not shown) yielded MIC of 0.25 mg/L

What the record says about "OC(Cn1cncn1)(Cn1cncn1)c1ccc(F)cc1F" : MIC is 32 mg/L

Query "CC[C@@H]([C@H](C)O)n1ncn(-c2ccc(N3CCN(c4ccc(OC[C@@H]5CO[C@@](Cn6cncn6)(c6ccc(F)cc6F)C5)cc4)CC3)cc2)c1=O" yields MIC of ≤ 0.03 mg/L

Given item "C[C@@H](c1ncncc1F)[C@](O)(Cn1cncn1)c1ccc(F)cc1F" , the value recorded as its MIC is 1 mg/L

====

# system.tested: CaCYP51 G448E (Candida albicans, UniProt P10613, G448E)
# Construct: made in house; host or cells: E. coli DH5α (pCWori+)
# Sequence (P10613 whole entry, looked up, stated change not applied): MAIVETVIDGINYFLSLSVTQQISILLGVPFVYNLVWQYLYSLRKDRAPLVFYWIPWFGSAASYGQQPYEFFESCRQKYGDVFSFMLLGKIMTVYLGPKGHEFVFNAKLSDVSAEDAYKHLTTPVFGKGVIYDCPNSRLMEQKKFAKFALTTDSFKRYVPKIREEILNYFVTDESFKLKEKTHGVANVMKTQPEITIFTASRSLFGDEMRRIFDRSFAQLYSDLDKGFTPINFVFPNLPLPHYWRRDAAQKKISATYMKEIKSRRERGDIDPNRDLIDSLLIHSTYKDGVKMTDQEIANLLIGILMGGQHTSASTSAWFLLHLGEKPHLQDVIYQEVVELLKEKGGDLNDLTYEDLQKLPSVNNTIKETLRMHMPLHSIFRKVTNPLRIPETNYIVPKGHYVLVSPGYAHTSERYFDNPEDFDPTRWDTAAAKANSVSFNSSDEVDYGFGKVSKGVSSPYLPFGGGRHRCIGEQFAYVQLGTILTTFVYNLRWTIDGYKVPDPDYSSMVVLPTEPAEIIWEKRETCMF
# experiment.notes: CYP51 reconstitution assay
# Assay type: biochemical
# experimental.context: 0.25 h, 4 μM triazole, % of activity without triazole, read-out: Residual CYP51 activity (%) ± SD
property.label: remaining activity at 4 µM (%)
Your answer should be a plain number; it is taken to be in %.

Recorded result, CCC(C)n1ncn(-c2ccc(N3CCN(c4ccc(OCC5COC(Cn6cncn6)(c6ccc(Cl)cc6Cl)O5)cc4)CC3)cc2)c1=O (stereo not shown) , remaining activity at 4 µM: 1.75

Looking up "C[C@@H](c1ncncc1F)[C@](O)(Cn1cncn1)c1ccc(F)cc1F" , I found its remaining activity at 4 µM recorded as 1.89

What the record says about "OC(Cn1cncn1)(Cn1cncn1)c1ccc(F)cc1F" : remaining activity at 4 µM is 10.5

The recorded remaining activity at 4 µM for "CC[C@@H]([C@H](C)O)n1ncn(-c2ccc(N3CCN(c4ccc(OC[C@@H]5CO[C@@](Cn6cncn6)(c6ccc(F)cc6F)C5)cc4)CC3)cc2)c1=O" is 7.89

====

# system.tested: CaCYP51 D278N+G464S (Candida albicans, UniProt P10613, D278N/G464S)
# experiment.notes: CYP51 reconstitution assay
# experimental.context: mean ± SD, duplicate
property.label: IC50
Quote the value and follow it with the unit of measurement.

get_value(item= "OC(Cn1cncn1)(Cn1cncn1)c1ccc(F)cc1F" , readout=IC50) returns 1240 nM

Lab note: measured IC50 of CCC(C)n1ncn(-c2ccc(N3CCN(c4ccc(OCC5COC(Cn6cncn6)(c6ccc(Cl)cc6Cl)O5)cc4)CC3)cc2)c1=O (stereo not drawn) was 403 nM

In plain terms, "CC[C@@H]([C@H](C)O)n1ncn(-c2ccc(N3CCN(c4ccc(OC[C@@H]5CO[C@@](Cn6cncn6)(c6ccc(F)cc6F)C5)cc4)CC3)cc2)c1=O" has a documented IC50 of 930 nM

====

# system.tested: CaCYP51 I471T (Candida albicans, UniProt P10613, I471T)
# Construct: made in house; host or cells: E. coli DH5α (pCWori+)
# Sequence (P10613 whole entry, looked up, stated change not applied): as above
# experiment.notes: CYP51 reconstitution assay
# Format: biochemical
# experimental.context: 0.25 h, 4 μM triazole, % of activity without triazole, read-out: Residual CYP51 activity (%) ± SD
For each record, write down the corresponding remaining activity at 4 µM.
Number only, in %; omit the unit.

Per the record, "CC[C@@H]([C@H](C)O)n1ncn(-c2ccc(N3CCN(c4ccc(OC[C@@H]5CO[C@@](Cn6cncn6)(c6ccc(F)cc6F)C5)cc4)CC3)cc2)c1=O" has remaining activity at 4 µM of 7.71

Entry "OC(Cn1cncn1)(Cn1cncn1)c1ccc(F)cc1F" — recorded remaining activity at 4 µM = 4.35

// recorded remaining activity at 4 µM for CCC(C)n1ncn(-c2ccc(N3CCN(c4ccc(OCC5COC(Cn6cncn6)(c6ccc(Cl)cc6Cl)O5)cc4)CC3)cc2)c1=O (stereo not shown) : 1.21

Measured remaining activity at 4 µM, "C[C@@H](c1ncncc1F)[C@](O)(Cn1cncn1)c1ccc(F)cc1F" : 0.92

====

# system.tested: CaCYP51 Y132H+K143R (Candida albicans, UniProt P10613, K143R/Y132H)
# Construct: made in house; host or cells: E. coli DH5α (pCWori+)
# experiment.notes: CYP51 reconstitution assay
# Format: biochemical
# experimental.context: 0.25 h, 4 μM triazole, % of activity without triazole, read-out: Residual CYP51 activity (%) ± SD
property.label: remaining activity at 4 µM (%)
Reply numerically in %, unit not repeated.

// recorded remaining activity at 4 µM for CCC(C)n1ncn(-c2ccc(N3CCN(c4ccc(OCC5COC(Cn6cncn6)(c6ccc(Cl)cc6Cl)O5)cc4)CC3)cc2)c1=O (stereo not shown) [Itraconazole, itraconazole] : 0.7

Noted for CC[C@@H]([C@H](C)O)n1ncn(-c2ccc(N3CCN(c4ccc(OC[C@@H]5CO[C@@](Cn6cncn6)(c6ccc(F)cc6F)C5)cc4)CC3)cc2)c1=O [Posaconazole, posaconazole] : its remaining activity at 4 µM reads 0.74

remaining activity at 4 µM in this record for C[C@@H](c1ncncc1F)[C@](O)(Cn1cncn1)c1ccc(F)cc1F [Voriconazole, voriconazole] : 39.6

In plain terms, OC(Cn1cncn1)(Cn1cncn1)c1ccc(F)cc1F [Fluconazole, fluconazole] has a documented remaining activity at 4 µM of 68.8

====

For each entry below, report its remaining activity at 4 µM value.
# system.tested: CaCYP51 S405F (Candida albicans, UniProt P10613, S405F)
# Construct: made in house; host or cells: E. coli DH5α (pCWori+)
# Sequence (P10613 whole entry, looked up, stated change not applied): as above
# experiment.notes: CYP51 reconstitution assay
# Format: biochemical
# experimental.context: 0.25 h, 4 μM triazole, % of activity without triazole, read-out: Residual CYP51 activity (%) ± SD
Give the number; % is assumed, so skip it.

Item C[C@@H](c1ncncc1F)[C@](O)(Cn1cncn1)c1ccc(F)cc1F [Voriconazole, voriconazole] ; assay system CaCYP51 S405F (Candida albicans, UniProt P10613, S405F); remaining activity at 4 µM reported as 1.94

Given the molecule CC[C@@H]([C@H](C)O)n1ncn(-c2ccc(N3CCN(c4ccc(OC[C@@H]5CO[C@@](Cn6cncn6)(c6ccc(F)cc6F)C5)cc4)CC3)cc2)c1=O [Posaconazole, posaconazole] and test system CaCYP51 S405F (Candida albicans, UniProt P10613, S405F), the measured remaining activity at 4 µM is 9.38

Field remaining activity at 4 µM (system: CaCYP51 S405F (Candida albicans, UniProt P10613, S405F)) for entry OC(Cn1cncn1)(Cn1cncn1)c1ccc(F)cc1F [Fluconazole, fluconazole] = 11.6

Per the reported CaCYP51 S405F (Candida albicans, UniProt P10613, S405F) data, CCC(C)n1ncn(-c2ccc(N3CCN(c4ccc(OCC5COC(Cn6cncn6)(c6ccc(Cl)cc6Cl)O5)cc4)CC3)cc2)c1=O (stereo not shown) [Itraconazole, itraconazole] has remaining activity at 4 µM of 2.73
